Readings of TGI for the listed compounds
Tested on: NCI-H460 lung
Experiment: NCI tumour cell line growth inhibition, 48 h

Examples from the recorded data:
# compound, readout_type, result
rows = [
    ("O=C(NN1C(=O)C(Cl)C1c1cccc(O)c1)c1ccccc1O (stereo not given)", "TGI", "> 100 µM"),
    ("C1=N[C@]23C(=N[C@H](N=C2NCc2ccco2)[C@]24N=CNC2=N[C@H]3N=C4NCc2ccco2)N1", "TGI", "> 100 µM"),
    ("C[C@H]1CCC/C=C/C2CC(OC(=O)CN(C)C)CC2C(OC(=O)CN(C)C)/C=C/C(=O)O1 (stereo not given in full)", "TGI", "31.2 µM"),
    ("Cc1cccc(C(C)(C)C)c1NC(=O)C(C#N)C1=C(Cl)C(=O)c2ccccc2C1=O (stereo not given)", "TGI", "38.5 µM"),
    ("COc1ccc2[nH]c3cc4c(=O)c5cc(OC)ccc5[nH]c4cc3c(=O)c2c1", "TGI", "> 100 µM"),
    ("OCC#CCOCC#Cc1ccccc1C#CCOCC#CCO", "TGI", "> 100 µM"),
    ("Cn1c(N/N=C/c2ccccc2)nc(-c2ccc3c(c2)OCO3)c(C#N)c1=O", "TGI", "> 100 µM"),
    ("CC(=O)OC1C[C@H]2C(OC(=O)c3ccccc3)C3C4(OC(C)=O)COC4C[C@H](OC(C)=O)[C@@]3(C)C(OC(C)=O)[C@H](OC(C)=O)C(=C1C)C2(C)C (stereo not given in full)", "TGI", "> 100 µM"),
    ("CCCCCCCCSC(=O)NCCCC", "TGI", "> 100 µM"),
    ("CCOC(=O)c1c(N2CCCC2)[nH]c(=O)c(C(c2c(O)c(C(=O)OCC)c(N3CCCC3)[nH]c2=O)C(C)C)c1O", "TGI", "> 100 µM"),
]

Challenge: Note down TGI recorded for Cc1ccc(S(=O)(=O)N(CC(O)COc2ccccc2)c2c(F)c(F)cc(F)c2F)cc1 (stereo not given)
Response given: 35.3 µM

Challenge: Note down TGI recorded for CC1CC(=O)Nc2ccc(Cl)cc2N1C(=O)CN1CCC(CCCCN(C)C)CC1 (stereo not given)
Response given: > 100 µM

Challenge: Note down TGI recorded for CC(C)OP(=O)(OC(C)C)C(=NCCO)NNc1ccc([N+](=O)[O-])cc1
Response given: > 100 µM

Challenge: Note down TGI recorded for Clc1ccc(-c2cc(-c3ccccc3)nc(N3CCN(CCCNc4ccnc5cc(Cl)ccc45)CC3)n2)cc1
Response given: 3.1 µM

Challenge: Note down TGI recorded for N#Cc1ncc(C(Cl)Cl)nc1Cl
Response given: 3.74 µM

Challenge: Note down TGI recorded for CC12NC(=C(C#N)C#N)C(C#N)=C3NC(N)=C(C#N)C(=C31)Oc1ccccc12 (stereo not given)
Response given: > 100 µM

Challenge: Note down TGI recorded for CC(C)C[S+]1C2=C([O-])CC(C)(C)CC2=Nc2ccccc21 (stereo not given)
Response given: > 100 µM

Challenge: Note down TGI recorded for CC(=O)O[C@@H]1[C@H](OC2CCCCC2(c2ccccc2)c2ccccc2)O[N+]([O-])=CC12CCCCC2 (stereo not given in full)
Response given: 32.2 µM

Challenge: Note down TGI recorded for CCOC(=O)C1(CC(=O)O)CCCC1=O (stereo not given)
Response given: > 100 µM

Challenge: Note down TGI recorded for CC(=O)NNc1nc(C)c(C(=O)NNC(=O)C(=O)Nc2ccc(Cl)c([N+](=O)[O-])c2)s1
Response given: > 100 µM
